Taken from ChEMBL document CHEMBL2021835.

- systemName: Signal transducer and activator of transcription 1-alpha/beta (Homo sapiens, UniProt P42224)
- Sequence (P42224 whole entry): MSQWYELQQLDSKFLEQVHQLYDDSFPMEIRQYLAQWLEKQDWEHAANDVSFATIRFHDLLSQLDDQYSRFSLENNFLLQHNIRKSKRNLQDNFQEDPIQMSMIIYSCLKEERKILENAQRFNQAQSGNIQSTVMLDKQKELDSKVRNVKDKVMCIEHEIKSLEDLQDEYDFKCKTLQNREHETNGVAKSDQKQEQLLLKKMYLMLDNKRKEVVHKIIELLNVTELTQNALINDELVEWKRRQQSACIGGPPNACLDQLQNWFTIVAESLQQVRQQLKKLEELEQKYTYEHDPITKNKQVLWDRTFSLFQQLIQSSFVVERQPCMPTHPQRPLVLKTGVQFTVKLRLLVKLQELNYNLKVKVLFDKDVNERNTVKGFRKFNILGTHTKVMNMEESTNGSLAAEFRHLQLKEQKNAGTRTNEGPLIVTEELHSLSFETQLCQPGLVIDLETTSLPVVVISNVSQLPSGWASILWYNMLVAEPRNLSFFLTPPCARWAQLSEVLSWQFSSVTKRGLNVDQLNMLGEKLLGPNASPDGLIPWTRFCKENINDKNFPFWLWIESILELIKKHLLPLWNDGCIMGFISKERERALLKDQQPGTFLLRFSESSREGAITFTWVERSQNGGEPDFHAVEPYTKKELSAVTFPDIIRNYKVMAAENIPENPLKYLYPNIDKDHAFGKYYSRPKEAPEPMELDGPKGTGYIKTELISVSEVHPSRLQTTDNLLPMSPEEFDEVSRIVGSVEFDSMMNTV
Each record here notes measured Ki.
Respond numerically; units are µM and should not be typed.

Check out these entries, answers already filled in.
[[record]]
moleculesmiles = "CN(CC(=O)N(Cc1ccc(C2CCCCC2)cc1)c1ccc(C(=O)O)c(O)c1)S(=O)(=O)c1ccc(Cl)cc1"
valuekind = "Ki"
readoutunit = "µM"
observed = 22

[[record]]
moleculesmiles = "COC(=O)c1cccc(-c2ccc(-c3ccc(CN(C(=O)CN(C)S(=O)(=O)c4ccc(C)cc4)c4ccc(C(=O)O)c(O)c4)cc3)cc2)c1"
valuekind = "Ki"
readoutunit = "µM"
observed = 3.2

[[record]]
moleculesmiles = "Cc1ccc(S(=O)(=O)N(C)CC(=O)N(Cc2ccc(-c3ccc(-c4ccc(C(N)=O)cc4)cc3)cc2)c2ccc(C(=O)O)c(O)c2)cc1"
valuekind = "Ki"
readoutunit = "µM"
observed = 9.5


// query Could you tell me which Ki is on file for Cc1ccc(S(=O)(=O)N(C)CC(=O)N(Cc2ccc(C3CCN(c4ccc(C(N)=O)cc4)CC3)cc2)c2ccc(C(=O)O)c(O)c2)cc1 ?
// result 27.8

// query Need Ki of CN(CC(=O)N(Cc1ccc(C2CCCCC2)cc1)c1ccc(C(=O)O)c(O)c1)S(=O)(=O)c1ccc(-c2ccccc2)cc1 , thanks.
// result 8.8

// query Quick check: Ki of Cc1cc(C)c(S(=O)(=O)N(C)CC(=O)N(Cc2ccc(C3CCCCC3)cc2)c2ccc(C(=O)O)c(O)c2)c(C)c1 ?
// result 9.7

* * *

- System: MV4-11
- protocolText: Cytotoxicity against human MV4-11 cells expressing STAT5 after 48 hrs by alamar blue fluorescent staining
- Format: functional, cell-based
- conditionSummary: MV4-11, 48 h
valueKind: pIC50
By convention, pIC50 is the negative base-10 log of a molar concentration.

Example results:
[[record]]
moleculesmiles = "Cc1ccc(S(=O)(=O)N(CC(=O)N(Cc2ccc(C3CCCCC3)cc2)c2ccc(C(=O)O)c(O)c2)C(=O)OC(C)(C)C)cc1"
systemname = "MV4-11"
observed = 4.29

[[record]]
moleculesmiles = "COC(=O)c1cccc(-c2ccc(-c3ccc(CN(C(=O)CN(C)S(=O)(=O)c4ccc(C)cc4)c4ccc(C(=O)O)c(O)c4)cc3)cc2)c1"
systemname = "MV4-11"
observed = 4.62


Could you now look at the following compound, please?
// query Fill in the blank: the reported pIC50 of Cc1cc(C)c(S(=O)(=O)N(C)CC(=O)N(Cc2ccc(C3CCCCC3)cc2)c2ccc(C(=O)O)c(O)c2)c(C)c1 is ____.
// result 4.77

* * *

Each entry below lists one item and its recorded pKi value.
- systemName: Signal transducer and activator of transcription 3 (Homo sapiens, UniProt P40763)
- Sequence (P40763 whole entry): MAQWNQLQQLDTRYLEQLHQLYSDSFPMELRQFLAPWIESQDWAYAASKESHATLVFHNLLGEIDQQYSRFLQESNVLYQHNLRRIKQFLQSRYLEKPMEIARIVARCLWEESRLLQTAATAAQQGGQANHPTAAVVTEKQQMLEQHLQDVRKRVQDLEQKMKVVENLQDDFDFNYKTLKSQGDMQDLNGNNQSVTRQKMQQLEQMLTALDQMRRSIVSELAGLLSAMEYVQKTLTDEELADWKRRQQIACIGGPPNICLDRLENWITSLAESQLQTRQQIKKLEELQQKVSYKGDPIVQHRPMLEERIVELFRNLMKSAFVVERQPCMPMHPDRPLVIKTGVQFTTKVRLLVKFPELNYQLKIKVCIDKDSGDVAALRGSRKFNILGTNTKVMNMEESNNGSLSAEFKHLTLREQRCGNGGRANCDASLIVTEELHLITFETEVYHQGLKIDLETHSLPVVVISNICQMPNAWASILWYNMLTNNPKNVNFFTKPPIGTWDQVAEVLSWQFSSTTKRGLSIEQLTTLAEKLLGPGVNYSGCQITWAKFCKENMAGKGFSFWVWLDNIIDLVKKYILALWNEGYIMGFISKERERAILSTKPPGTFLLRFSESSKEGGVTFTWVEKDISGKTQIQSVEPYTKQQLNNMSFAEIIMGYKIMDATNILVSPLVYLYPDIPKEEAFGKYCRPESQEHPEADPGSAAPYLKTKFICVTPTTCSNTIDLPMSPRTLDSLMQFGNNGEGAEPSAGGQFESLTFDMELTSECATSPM
- protocolText: Displacement of fluorescein-labeled phosphotyrosine-peptide derived from the interleukin-6 receptor subunit gp130 from the STAT3 after 15 mins by fluorescent polarization assay
Bear in mind: pKi is minus log10 of a mol/L concentration; give just that figure.

// query Recorded pKi for COC(=O)c1cccc(-c2ccc(-c3ccc(CN(C(=O)CN(C)S(=O)(=O)c4ccc(C)cc4)c4ccc(C(=O)O)c(O)c4)cc3)cc2)c1 , please?
// result 5.55

* * *

- systemName: Signal transducer and activator of transcription 5B (Homo sapiens)
- Sequence (P51692 whole entry): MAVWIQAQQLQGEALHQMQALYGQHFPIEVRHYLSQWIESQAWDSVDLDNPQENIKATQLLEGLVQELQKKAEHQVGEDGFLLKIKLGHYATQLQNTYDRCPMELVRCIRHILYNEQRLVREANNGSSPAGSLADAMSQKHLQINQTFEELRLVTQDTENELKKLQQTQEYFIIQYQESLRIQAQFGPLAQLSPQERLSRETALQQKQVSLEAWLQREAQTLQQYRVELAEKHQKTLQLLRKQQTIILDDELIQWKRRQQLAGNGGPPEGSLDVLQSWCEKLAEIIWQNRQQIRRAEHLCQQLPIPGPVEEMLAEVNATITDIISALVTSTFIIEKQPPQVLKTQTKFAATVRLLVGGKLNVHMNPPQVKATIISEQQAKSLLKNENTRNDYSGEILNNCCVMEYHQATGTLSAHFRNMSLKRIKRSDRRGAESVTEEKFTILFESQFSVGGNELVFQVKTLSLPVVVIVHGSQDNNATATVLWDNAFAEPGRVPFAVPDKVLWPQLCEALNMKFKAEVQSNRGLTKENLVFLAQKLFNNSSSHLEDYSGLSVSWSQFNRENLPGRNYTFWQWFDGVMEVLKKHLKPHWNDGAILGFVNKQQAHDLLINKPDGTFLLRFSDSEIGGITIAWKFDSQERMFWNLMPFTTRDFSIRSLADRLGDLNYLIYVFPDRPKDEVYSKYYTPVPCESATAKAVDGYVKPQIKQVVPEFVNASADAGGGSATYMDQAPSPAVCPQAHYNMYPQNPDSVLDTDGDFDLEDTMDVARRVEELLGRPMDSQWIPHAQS
valueKind: pKi
Please note pKi is a logarithmic value: minus log10 of concentration in mol/L. Answer with that number alone.

// query Entry Cc1ccc(S(=O)(=O)N(CC(=O)N(Cc2ccccc2)c2ccc(C(=O)O)c(O)c2)C(=O)OC(C)(C)C)cc1 , system Signal transducer and activator of transcription 5B (Homo sapiens): what pKi was measured?
// result 5.08

// query Hello, I am looking for reported pKi with Signal transducer and activator of transcription 5B (Homo sapiens) for Cc1cc(C)c(S(=O)(=O)N(C)CC(=O)N(Cc2ccc(C3CCCCC3)cc2)c2ccc(C(=O)O)c(O)c2)c(C)c1 . Could you help?
// result 5.55

// query Any idea what pKi came out for CN(CC(=O)N(Cc1ccc(C2CCCCC2)cc1)c1ccc(C(=O)O)c(O)c1)S(=O)(=O)c1ccc(Cl)cc1 on Signal transducer and activator of transcription 5B (Homo sapiens)?
// result 5.10

// query Look up pKi with Signal transducer and activator of transcription 5B (Homo sapiens) for this compound: Cc1ccc(S(=O)(=O)N(C)CC(=O)N(Cc2ccc(-c3ccc(-c4ccc(C(N)=O)cc4)cc3)cc2)c2ccc(C(=O)O)c(O)c2)cc1
// result 5.32

* * *

- systemName: Signal transducer and activator of transcription 5A (Homo sapiens) (UniProt P42229)
- Sequence (P42229 whole entry): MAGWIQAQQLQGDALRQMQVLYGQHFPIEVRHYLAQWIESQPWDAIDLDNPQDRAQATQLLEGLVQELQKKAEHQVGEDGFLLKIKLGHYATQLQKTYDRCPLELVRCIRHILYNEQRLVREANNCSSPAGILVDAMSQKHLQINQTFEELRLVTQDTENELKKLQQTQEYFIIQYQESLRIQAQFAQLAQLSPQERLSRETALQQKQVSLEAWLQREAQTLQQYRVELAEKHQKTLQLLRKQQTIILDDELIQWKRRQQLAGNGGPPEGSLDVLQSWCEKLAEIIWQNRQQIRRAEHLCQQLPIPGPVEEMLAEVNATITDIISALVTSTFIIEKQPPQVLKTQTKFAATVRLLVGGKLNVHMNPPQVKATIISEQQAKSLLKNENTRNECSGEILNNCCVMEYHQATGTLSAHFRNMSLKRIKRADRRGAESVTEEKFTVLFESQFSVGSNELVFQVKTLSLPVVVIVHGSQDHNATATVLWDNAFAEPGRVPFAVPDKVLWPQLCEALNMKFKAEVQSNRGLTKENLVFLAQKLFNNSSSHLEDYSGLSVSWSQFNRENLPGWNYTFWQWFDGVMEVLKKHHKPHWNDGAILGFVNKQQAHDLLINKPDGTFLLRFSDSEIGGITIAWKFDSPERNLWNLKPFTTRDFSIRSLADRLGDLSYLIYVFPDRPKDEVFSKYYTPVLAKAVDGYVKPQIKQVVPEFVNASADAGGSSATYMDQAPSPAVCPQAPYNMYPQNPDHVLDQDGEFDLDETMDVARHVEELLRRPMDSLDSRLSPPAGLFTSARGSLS
- protocolText: Inhibition of STAT5-mediated C-MYC expression in human K562 cells at 40 uM after 6 hrs by RT-PCR analysis
- Type: cell-based
The source made the active and inactive calls. No cut-off for these calls is given here.
valueKind: inhibition

[[record]]
moleculesmiles = "Cc1cc(C)c(S(=O)(=O)N(C)CC(=O)N(Cc2ccc(C3CCCCC3)cc2)c2ccc(C(=O)O)c(O)c2)c(C)c1"
valuekind = "inhibition"
observed = "Active"

[[record]]
moleculesmiles = "Cc1ccc(S(=O)(=O)N(CC(=O)N(Cc2ccc(C3CCCCC3)cc2)c2ccc(C(=O)O)c(O)c2)C(=O)OC(C)(C)C)cc1"
valuekind = "inhibition"
observed = "Active"

[[record]]
moleculesmiles = "CN(CC(=O)N(Cc1ccc(C2CCCCC2)cc1)c1ccc(C(=O)O)c(O)c1)S(=O)(=O)c1ccc(Cl)cc1"
valuekind = "inhibition"
observed = "Active"

[[record]]
moleculesmiles = "COC(=O)c1cccc(-c2ccc(-c3ccc(CN(C(=O)CN(C)S(=O)(=O)c4ccc(C)cc4)c4ccc(C(=O)O)c(O)c4)cc3)cc2)c1"
valuekind = "inhibition"
observed = "Active"


* * *

Known Ki of a selection of compounds
- systemName: Signal transducer and activator of transcription 1-alpha/beta (Homo sapiens, UniProt P42224)

[[record]]
moleculesmiles = "Cc1ccc(S(=O)(=O)N(C)CC(=O)N(Cc2ccc(C3CCCCC3)cc2)c2ccc(C(=O)O)c(O)c2)cc1"
valuekind = "Ki"
observed = "> 25 µM"

[[record]]
moleculesmiles = "Cc1ccc(S(=O)(=O)N(CC(=O)N(Cc2ccccc2)c2ccc(C(=O)O)c(O)c2)C(=O)OC(C)(C)C)cc1"
valuekind = "Ki"
observed = "> 25 µM"

[[record]]
moleculesmiles = "Cc1ccc(S(=O)(=O)N(CC(=O)N(Cc2ccc(C3CCCCC3)cc2)c2ccc(C(=O)O)c(O)c2)C(=O)OC(C)(C)C)cc1"
valuekind = "Ki"
observed = "> 25 µM"


// query Ki lookup needed for Cc1ccc(S(=O)(=O)N(C)CC(=O)N(Cc2ccc(C3CCN(c4ccc(C#N)cc4)CC3)cc2)c2ccc(C(=O)O)c(O)c2)cc1 , thanks.
// result > 25 µM
